system: MDA-MB-435; experiment: NCI tumour cell line growth inhibition, 48 h
Active and inactive are the calls of the source. Cut-off read from the data, not from the text of the source: active = GI50 up to about 1.1 µM and inactive = higher.
Thanks in advance; please answer with one of these: active, inactive

Compound: CC(C)[Si](CC1=CCCCC12C(=O)N(COCC[Si](C)(C)C)c1ccccc12)(C(C)C)C(C)C (stereo not given)
System: MDA-MB-435
Label Class: inactive
//
Compound: COc1cc2c(c(OC)c1O)-c1ccc(OC)c(=O)cc1[C@@H](NC(=O)C(F)(F)F)CC2
System: MDA-MB-435
Label Class: active
//
Compound: O=c1sc2c(s1)SSSSS2
System: MDA-MB-435
Label Class: inactive
//
Compound: c1ccc(-c2cccc(-c3ccccn3)n2)nc1
System: MDA-MB-435
Label Class: active
//
Compound: C[C@]12CC[C@H](O)CC1=CC[C@@H]1[C@@H]2CC[C@]2(C)C(=N/N)/C(=N\O)C[C@@H]12
System: MDA-MB-435
Label Class: inactive

Assay outcome for O=c1c(Br)c(-c2ccccc2)[s+]([O-])c2ccccc12 (stereo not given) : what was it? inactive

Assay outcome for CN(C)CC(O)c1ccc(Cl)c2ccccc12 (stereo not given) : what was it? inactive
